Hello, the source for this data is patent US6025376A, in case you need it.

target: 3H-Rolipram bond in brain homogenates; assay: Displacement of radiolabeled Rolipram in brain homogenates; details: calculated from IC50: Ki = IC50/[1+(L/KD)]
Recorded Ki, one value per entry.
propertyMeasured: Ki (nM)

COc1ccc(C2(C)CNC(=O)O2)cc1OC1CCCC1 (racemic) [(R,S) - 1] : 0.57
CCOc1cc([C@@]2(C)CNC(=O)O2)ccc1OC [Ethyl- (S)-(+)-Isomer] : 20
CCCOc1cc([C@]2(C)CNC(=O)O2)ccc1OC [(R) - (-) - 2] : 0.24
COc1ccc([C@@]2(C)CNC(=O)O2)cc1OC1CCCC1 [(S) - (+) - 1] : 3
CCOc1cc([C@]2(C)CNC(=O)O2)ccc1OC [Ethyl- (R)-(-)-Isomer] : 0.33
CCOc1cc(C2(C)CNC(=O)O2)ccc1OC (racemic) [Ethyl- Racemate] : 0.68
COc1ccc([C@]2(C)CNC(=O)O2)cc1OC1CCCC1 [(R) - (-) - 1] : 0.34
CCCOc1cc([C@@]2(C)CNC(=O)O2)ccc1OC [(S) - (+) - 2] : 16
CCCOc1cc(C2(C)CNC(=O)O2)ccc1OC (racemic) [(RS) - 2] : 0.61
